The origin of these recorded values is patent US11793880B2.

Tested on: L540cy, HL
Details: Table 4; cAC10 ADCs DAR 8, 96 h
observed property: IC50, L540cy, HL (ng/mL)
# value in ng/mL; strip the unit string

Sample records with IC50, L540cy, HL:
>  <compound>
CCCO[C@H](C[C@H](C(C)C)N(C)C(=O)[C@@H](NC(=O)[C@H]1CCCC[N+]1(C)Cc1ccc(O[C@@H]2O[C@H](C(=O)O)[C@@H](O)[C@H](O)[C@H]2O)c(NC(=O)CCNC(=O)[C@H](CN)N2C(=O)C=CC2=O)c1)[C@@H](C)CC)c1nc(C(=O)N[C@@H](Cc2ccccc2)C[C@H](C)C(=O)O)cs1 (stereo partly shown)

>  <IC50, L540cy, HL (ng/mL)>
6

$$$$
>  <compound>
CCCO[C@H](C[C@H](C(C)C)N(C)C(=O)[C@@H](NC(=O)[C@H]1CCCC[N+]1(C)Cc1ccc(O[C@@H]2O[C@H](C(=O)O)[C@@H](O)[C@H](O)[C@H]2O)c(NC(=O)CCNC(=O)[C@H](CCCCNC(=O)CCOCCOCCOCCOCCOCCOCCOCCOCCOCCOCCOCCOC)NC(=O)[C@H](CN)N2C(=O)C=CC2=O)c1)[C@@H](C)CC)c1nc(C(=O)N[C@@H](Cc2ccccc2)C[C@H](C)C(=O)O)cs1 (stereo partly shown)

>  <IC50, L540cy, HL (ng/mL)>
10

$$$$
>  <compound>
CC[C@H](C)[C@H](NC(=O)[C@H]1CCCC[N+]1(C)Cc1ccc(O[C@@H]2O[C@H](C(=O)O)[C@@H](O)[C@H](O)[C@H]2O)c(NC(=O)CCNC(=O)[C@H](CCCCNC(=O)CCOCCOCCOCCOCCOCCOCCOCCOCCOCCOCCOCCOC)NC(=O)[C@H](CN)N2C(=O)C=CC2=O)c1)C(=O)N(C)[C@H](C[C@@H](OC(C)=O)c1nc(C(=O)N[C@@H](Cc2ccccc2)C[C@H](C)C(=O)O)cs1)C(C)C (stereo partly shown)

>  <IC50, L540cy, HL (ng/mL)>
2

$$$$

Now turn to the next compound.
Query: Enter reported IC50, L540cy, HL observed with L540cy, HL for CCO[C@H](C[C@H](C(C)C)N(C)C(=O)[C@@H](NC(=O)[C@H]1CCCC[N+]1(C)Cc1ccc(O[C@@H]2O[C@H](C(=O)O)[C@@H](O)[C@H](O)[C@H]2O)c(NC(=O)CCNC(=O)[C@H](CN)N2C(=O)C=CC2=O)c1)[C@@H](C)CC)c1nc(C(=O)N[C@@H](Cc2ccccc2)C[C@H](C)C(=O)O)cs1 (stereo partly shown)
Response: 5

----------
Test system: Karpas299, ALCL
Assay: In vitro assays - tubulysin free drugs, CellTiter-Glo growth inhibition
Assay type: cell-based
Conditions: Homo sapiens, KARPAS-299, 96 h, Table 2; free drug, 96 hour exposure
observed property: pIC50
The value called pIC50 is obtained by taking minus log10 of the concentration in mol/L.

>  <compound>
CC[C@H](C)[C@H](NC(=O)[C@H]1CCCCN1C)C(=O)N(C)[C@H](C[C@@H](OC(C)=O)c1nc(C(=O)N[C@@H](Cc2ccccc2)C[C@H](C)C(=O)O)cs1)C(C)C [Compound 7, tubulysin M, reference compound]

>  <measured number>
10.40

$$$$

We now examine a further compound.
Query: Can you look up the measured pIC50 of CC[C@H](C)[C@H](NC(=O)[C@H]1CCCCN1C)C(=O)N(C)[C@H](C[C@@H](OC(=O)CC(C)C)c1nc(C(=O)N[C@@H](Cc2ccccc2)C[C@H](C)C(=O)O)cs1)C(C)C for me?
Response: 10.70
